This collection of values is drawn from patent US20080234262A1.

# Test system: breast line MDA468
# Test Description: In vitro cell culture growth assay (MTS), MDA468
# Type: cell-based, human
# Measurement Context: Homo sapiens, 72 h, MDA468 cells, three days after drug treatment
IC50 less than 3000 nM is class 1; IC50 greater than or equal to 3000 nM is class 0.

Examples with answers:
{"Compound": "CNC(=O)Nc1ccc(-c2nc(N3CCOCC3)c3cnn(C4CCN(C(=O)c5ccccc5)CC4)c3n2)cc1 [Compound 580]", "Class": "class 1"}
{"Compound": "O=C(Nc1ccc(-c2nc(N3CCOCC3)c3cnn(C4CCNCC4)c3n2)cc1)Nc1ccccn1 [Compound 778]", "Class": "class 1"}
{"Compound": "COC(=O)N1CCC(n2ncc3c(N4CCOCC4)nc(-c4ccc(NC(=O)OCCN)cc4)nc32)CC1 [Compound 903]", "Class": "class 0"}
{"Compound": "CNC(=O)Nc1ccc(-c2nc(N3CCOCC3)c3cnn(C4CCN(C(C)=O)CC4)c3n2)cc1 [Example 472]", "Class": "class 1"}
{"Compound": "CNC(=O)Nc1ccc(-c2nc(N3CCOCC3)c3cnn(C4CCNCC4)c3n2)cc1 [Example 338]", "Class": "class 1"}

## Input Determine whether this compound shows IC50 lower than 3000 nM (ties excluded): Nc1ccc(-c2nc(N3CCOCC3)c3cnn(C4CCN(Cc5ccccc5)CC4)c3n2)cn1 [Compound 155]
## Output class 1

## Input Determine whether this compound shows IC50 lower than 3000 nM (ties excluded): COC(=O)Nc1ccc(-c2nc(N3CCOCC3)c3cn[nH]c3n2)cc1 [Compound 525]
## Output class 0
